Reference source: patent US4327100A

# LD50 at 336 h listing for each entry below
experimental_protocol: Acute toxicity in white mice after oral administration
Type: in vivo
condition_set: mouse, in vivo, single oral dose 300 mg/kg, observation time 14 days

[
  {
    "compound": "COc1ccc(-c2nc3ncccc3[nH]2)c(OCC[S+]([O-])c2ccc(Cl)cc2)c1 (stereo not drawn) [B]",
    "LD50 at 336 h": "> 300 mg/kg"
  },
  {
    "compound": "COc1ccc(-c2nc3ncccc3[nH]2)c(OCC[S+]([O-])c2cc(OC)c(OC)cc2C)c1 (stereo not drawn) [D]",
    "LD50 at 336 h": "> 300 mg/kg"
  }
]

Alright, here's another compound for you.
Ask | Could you tell me which LD50 at 336 h is on file for COc1ccc(-c2nc3ncccc3[nH]2)c(OCC[S+]([O-])c2ccc(C)cc2)c1 (stereo not drawn) [C] ?
Reply | > 300 mg/kg
